Field: inhibition at 1 µM. Provide a value for each of the molecules that follow.
systemTested: MNK1a (Homo sapiens (Human), UniProt Q9BUB5)
Sequence (Q9BUB5 other isoform, or with tags, fused parts or gaps): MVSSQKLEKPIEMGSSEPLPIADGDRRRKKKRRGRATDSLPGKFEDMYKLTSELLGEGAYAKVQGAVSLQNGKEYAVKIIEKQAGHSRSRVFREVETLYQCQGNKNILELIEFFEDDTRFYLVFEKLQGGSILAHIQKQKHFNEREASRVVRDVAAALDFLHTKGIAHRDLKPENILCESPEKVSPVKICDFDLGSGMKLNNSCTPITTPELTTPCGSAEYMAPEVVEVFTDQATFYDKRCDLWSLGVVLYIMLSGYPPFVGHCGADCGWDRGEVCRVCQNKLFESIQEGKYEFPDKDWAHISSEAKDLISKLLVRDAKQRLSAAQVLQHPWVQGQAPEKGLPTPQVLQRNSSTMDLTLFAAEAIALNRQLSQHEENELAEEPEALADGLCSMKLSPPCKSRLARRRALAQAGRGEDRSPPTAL
testDetails: MNK1 in vitro kinase assay (Assay 3), Z'-LYTE
Format: biochemical
testParameters: compound concentration of 1 μM, read-out: MNK1 % INH
State just the number; it will be interpreted in %.

Prompt: For O=S1(=Nc2cc(Cl)c3c(Nc4ccc(F)cc4O[C@H]4COC[C@@H]4O)ncnc3c2)CCCC1 [Example 1.9] , what is its reported inhibition at 1 µM?
Completion: 98

Prompt: Value lookup for inhibition at 1 µM; key = CS(C)(=O)=Nc1cc(Cl)c2c(Nc3ccc(Cl)nc3O[C@H]3COC[C@@H]3O)ncnc2c1 [Example 1.19]
Completion: 99

Prompt: Report inhibition at 1 µM for O=S1(=Nc2cc(F)c3c(Nc4ccc(Cl)nc4O[C@H]4COC[C@@H]4O)ncnc3c2)CCCC1 [Example 1.20] please.
Completion: 97

Prompt: Quick one: inhibition at 1 µM for CS(C)(=O)=Nc1cc(Cl)c2c(Nc3cccnc3O[C@H]3COC[C@@H]3O)ncnc2c1 [Example 1.14] ?
Completion: 96

Prompt: If you can, please state the reported inhibition at 1 µM value of CO[C@@H]1COC[C@H]1Oc1ncccc1Nc1ncnc2cc(N=S(C)(C)=O)cc(C)c12 (racemic) [Example 2.34] .
Completion: 70

Prompt: Quick one: inhibition at 1 µM of CO[C@@H]1CN(C(=O)OCc2ccccc2)C[C@H]1Oc1cc(F)ccc1Nc1ncnc2cc(N=S3(=O)CCCC3)cc(C)c12 [Example 2.15] ?
Completion: 31

Prompt: Looking for the measured inhibition at 1 µM of COc1cc(N=S(C)(C)=O)cc2ncnc(Nc3ccc(Cl)nc3O[C@H]3COC[C@@H]3O)c12 [Example 8.2] , can you help?
Completion: 100

---

systemTested: MNK2a (Homo sapiens (Human))
Sequence (Q9HBH9 whole entry): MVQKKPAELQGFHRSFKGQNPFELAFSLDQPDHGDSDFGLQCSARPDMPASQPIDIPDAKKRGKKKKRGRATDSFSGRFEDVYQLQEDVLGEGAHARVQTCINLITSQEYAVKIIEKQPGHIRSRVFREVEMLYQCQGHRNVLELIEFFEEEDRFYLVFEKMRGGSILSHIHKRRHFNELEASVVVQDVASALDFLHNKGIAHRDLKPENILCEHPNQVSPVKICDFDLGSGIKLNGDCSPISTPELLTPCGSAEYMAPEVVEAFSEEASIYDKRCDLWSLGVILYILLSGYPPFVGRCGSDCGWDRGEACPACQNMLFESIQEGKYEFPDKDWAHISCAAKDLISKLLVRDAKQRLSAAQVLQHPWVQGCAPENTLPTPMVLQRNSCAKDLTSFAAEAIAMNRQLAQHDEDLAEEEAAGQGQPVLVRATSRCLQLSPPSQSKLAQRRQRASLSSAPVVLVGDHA
testDetails: MNK2a in vitro kinase assay (Assay 2), ADP-Glo
Assay type: biochemical
testParameters: assay 2; read-out: MNK2 IC50
Text: B. MNK2a In Vitro Kinase Assay (Assay 2)
// assign yes if IC50 falls strictly below 40 nM, else no (ties count as no)

Prompt: Please determine if CS(C)(=O)=Nc1cc(F)c2c(Nc3ccc(F)cc3O[C@H]3COC[C@H]3O)ncnc2c1 (racemic) [Example 2.52] is below 40 nM in terms of IC50.
Completion: yes

Prompt: Criterion: IC50 strictly below 40 nM. Is it met by Cc1cc(N=S(C)(C)=O)cc2ncnc(Nc3ccc(F)cc3O[C@H]3COC[C@H]3OCC(F)F)c12 (racemic) [Example 10.3] ?
Completion: yes

Prompt: # TODO verify IC50 < 40 nM strictly for this molecule: CS(=O)(=Nc1cc(F)c2c(Nc3ccc(F)cc3O[C@@H]3COC[C@@H]3O)ncnc2c1)c1ccccc1 (mixture of isomers) [Example 2.95]
Completion: no

Prompt: I wonder whether CS(=O)(=Nc1cc(F)c2c(Nc3ccc(F)cc3O[C@@H]3COC[C@@H]3O)ncnc2c1)C1CC1 (mixture of isomers) [Example 2.91] has IC50 below 40 nM. Can you tell?
Completion: no

Prompt: Regarding O=S1(=Nc2cc(Cl)c3c(Nc4ccc(F)cc4O[C@@H]4COC[C@@H]4O)ncnc3c2)CCC1 (single isomer, unassigned) [Example 1.34] , kindly confirm whether its IC50 is beneath 40 nM.
Completion: yes

Prompt: Lab note: IC50 threshold 40 nM. Does this molecule come in strictly under it? CO[C@@H]1CN(S(C)(=O)=O)C[C@H]1Oc1ncccc1Nc1ncnc2cc(N=S(C)(C)=O)cc(C)c12 [Example 6.6]
Completion: no

Prompt: I'd appreciate it if you could check whether COc1cc(N=S(C)(=O)c2ccncc2)cc2ncnc(Nc3ccc(F)cc3O[C@H]3COC[C@H]3O)c12 (mixture of isomers) [Example 9.27] has IC50 smaller than 40 nM.
Completion: no

Prompt: Lab note: IC50 threshold 40 nM. Does this molecule come in strictly under it? CO[C@@H]1CN(S(C)(=O)=O)C[C@H]1Oc1ncccc1Nc1ncnc2cc(N=S3(=O)CCCC3)cc(C)c12 [Example 6.5]
Completion: yes

Prompt: Check if IC50 falls below 40 nM for COc1cc(N=S(C)(=O)c2ccncc2)cc2ncnc(Nc3ccc(F)cc3O[C@H]3COC[C@@H]3O)c12 (stereo partly shown) [Example 9.30] .
Completion: no

Prompt: Determine whether this molecule shows IC50 lower than 40 nM (ties excluded): COc1cc(N=S(C)(=O)C(C)(C)C)cc2ncnc(Nc3ccc(F)cc3O[C@H]3COC[C@H]3O)c12 (mixture of isomers) [Example 9.19]
Completion: no

Prompt: Find out if reported IC50 for COc1cc(N=S2(=O)CCCC2)cc2ncnc(Nc3cccnc3O[C@H]3COC[C@@H]3O)c12 [Example 8.3] is less than 40 nM
Completion: yes

Prompt: Dear reviewer, please state whether Cc1cc(N=S(C)(C)=O)cc2ncnc(Nc3ccc(Cl)nc3O[C@H]3COC[C@@H]3O)c12 [Example 2.40] has IC50 strictly beneath 40 nM.
Completion: yes

Prompt: Given CO[C@@H]1CN(C(=O)OCc2ccccc2)C[C@H]1Oc1cc(F)ccc1Nc1ncnc2cc(N=S(C)(C)=O)cc(C)c12 [Example 2.14] , is recorded IC50 strictly lower than 40 nM?
Completion: no

Prompt: Given the entry COc1cc(N=S2(=O)CCC(O)CC2)cc2ncnc(Nc3ccc(F)cc3O[C@H]3COC[C@@H]3O)c12 (stereo partly shown) [Example 9.26] , would its reported IC50 be below 40 nM?
Completion: yes

Prompt: Threshold test, IC50 < 40 nM: Cc1cc(N=S(C)(C)=O)cc2ncnc(Nc3cccnc3O[C@@H]3CNC[C@H]3O)c12 [Example 3.2]
Completion: no

Prompt: Take the molecule Cc1cc(N=S2(=O)CCC2)cc2ncnc(Nc3ccc(F)cc3OC3CCC(O)OC3)c12 (stereo not shown) [Example 12.1] and say whether its IC50 is less than 40 nM.
Completion: yes

Prompt: # check: IC50 < 40 nM for CO[C@@H]1CNC[C@H]1Oc1cc(F)ccc1Nc1ncnc2cc(N=S(C)(C)=O)cc(C)c12 [Example 4.1]
Completion: no

Prompt: Lab log: compare recorded IC50 with 40 nM; is it strictly lower for CCOc1cc(N=S(C)(C)=O)cc2ncnc(Nc3ccc(F)cc3O[C@H]3COC[C@@H]3O)c12 [Example 9.6] ?
Completion: yes

Prompt: Hi there! Is IC50 for CO[C@@H]1COC[C@H]1Oc1cc(F)ccc1Nc1ncnc2cc(N=S(C)(C)=O)cc(C)c12 (racemic) [Example 13.2] below 40 nM, do you know?
Completion: yes

Prompt: Hello, I'm reviewing records and need to know if IC50 of CO[C@@H]1CN(S(C)(=O)=O)C[C@H]1Oc1cc(F)ccc1Nc1ncnc2cc(N=S(C)(C)=O)cc(C)c12 [Example 6.7] is below 40 nM. Could you check?
Completion: no

Prompt: Record Cc1cc(N=S(C)(C)=O)cc2ncnc(Nc3ccc(F)cc3O[C@H]3COC[C@H]3C#N)c12 [Example 1.2] : is its IC50 strictly below 40 nM?
Completion: yes

Prompt: Here's an entry: Cc1cc(N=S2(=O)CCCC2)cc2ncnc(Nc3ccc(Cl)nc3O[C@@H]3COC[C@H]3O)c12 [Example 2.54] . Is its IC50 below 40 nM?
Completion: yes

Prompt: Quick check: does COc1cc(N=S(C)(=O)C2CC2)cc2ncnc(Nc3ccc(F)cc3O[C@H]3COC[C@@H]3O)c12 (stereo partly shown) [Example 9.22] have IC50 under 40 nM?
Completion: yes

Prompt: Does the reported IC50 of CS(C)(=O)=Nc1cc(Cl)c2c(Nc3cccnc3O[C@H]3COC[C@@H]3O)ncnc2c1 [Example 1.14] stay below 40 nM?
Completion: yes

Prompt: # strict comparison: is reported IC50 < 40 nM? input = CO[C@@H]1CN(CC(F)F)C[C@H]1Oc1ncccc1Nc1ncnc2cc(N=S3(=O)CCCC3)cc(C)c12 [Example 5.5]
Completion: yes

Prompt: API: query returns whether the molecule falls strictly under 40 nM in IC50. Query: CS(C)(=O)=Nc1cc(Cl)c2c(Nc3ccc(F)cc3O[C@@H]3COC[C@H]3O)ncnc2c1 [Example 1.26]
Completion: yes

Prompt: Strictly below 40 nM: is that where IC50 of CO[C@@H]1CN(S(C)(=O)=O)C[C@H]1Oc1cc(F)ccc1Nc1ncnc2cc(N=S3(=O)CCCC3)cc(C)c12 [Example 6.4] sits?
Completion: yes
